assay.target: nm-HO (Neisseria meningitidis, UniProt Q9AH50)
Sequence (Q9AH50 1-209): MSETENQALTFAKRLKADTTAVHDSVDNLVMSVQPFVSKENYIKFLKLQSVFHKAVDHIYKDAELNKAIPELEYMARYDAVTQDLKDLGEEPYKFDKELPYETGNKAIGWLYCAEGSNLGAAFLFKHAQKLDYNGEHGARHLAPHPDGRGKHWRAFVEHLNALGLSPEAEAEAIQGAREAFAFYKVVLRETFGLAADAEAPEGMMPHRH
experimental.protocol: biochemical
Format: binding
Please go through the items and note down their pKd.
Give bare numbers, as −log10 of the molar value.

Known results for compounds:
Per the reported nm-HO (Neisseria meningitidis, UniProt Q9AH50) data, `O=C(Cc1ccc([N+](=O)O)cc1)N/N=C/c1ccc(O)cc1` has pKd of 4.91

Per the reported nm-HO (Neisseria meningitidis, UniProt Q9AH50) data, `O=C1C=C(Nc2ccccc2O)c2ccccc2C1=O` has pKd of 4.54

Per the reported nm-HO (Neisseria meningitidis, UniProt Q9AH50) data, `O=C(Cc1ccc(Cl)cc1)N/N=C/c1c[nH]c2ccccc12` has pKd of 4.85

Per the reported nm-HO (Neisseria meningitidis, UniProt Q9AH50) data, `O=C(O)/C=C\C(=O)Nc1ccc(Nc2ccccc2)cc1` has pKd of 4.81

Others:
Per the reported nm-HO (Neisseria meningitidis, UniProt Q9AH50) data, `Cl.N=C(N/N=C\c1cccnc1)N/N=C\c1cccnc1` has pKd of 4.91

###

assay.target: nm-HO (Neisseria meningitidis, UniProt Q9AH50)
Assay type: cell-based
assay.setup: Table 3B; nm-HO in E. coli expression system
result.type: Biliverdin detection from E. coli Assay

// sample CN(C)c1ccc(/C=N/NC(=N)N)cc1 [Compound 1] , its Biliverdin detection from E. coli Assay was White pellet

// sample NC(=O)c1ccc(NC(=O)/C=C\C(=O)O)cc1Cl [Compound 8] , its Biliverdin detection from E. coli Assay was Green Pellet

// sample O=C1C=C(Nc2ccccc2O)c2ccccc2C1=O [Compound 114] , its Biliverdin detection from E. coli Assay was Toxic

// sample Cl.N=C(N/N=C\c1cccnc1)N/N=C\c1cccnc1 [Compound 148] , its Biliverdin detection from E. coli Assay was White pellet

// sample O=C(NNC(=O)c1ccncc1)c1ccncc1 [Compound 24] , its Biliverdin detection from E. coli Assay was Green Pellet

Please state, for each entry, its recorded Biliverdin detection from E. coli Assay.
1. O=C(c1ccco1)C12CN3CN(CN(C3)C1)C2 [Compound 133]
2. O=C(Cc1ccc(Cl)cc1)N/N=C/c1c[nH]c2ccccc12 [Compound 126]
3. O=C(O)/C=C\C(=O)Nc1ccc(Nc2ccccc2)cc1 [Compound 75]

Given back:
Green Pellet
White pellet
White pellet

###

Please go through the items and note down their MIC50.
System: P. aeruginosa
experimental.protocol: MIC50 for P. aeruginosa
Type: cell-based, Pseudomonas aeruginosa
assay.setup: Pseudomonas aeruginosa; Table 3A; read-out: MIC 50

Please state, for each entry, its recorded MIC50.
1. NCC(=O)N(O)Cc1ccccc1
2. COc1ccc(C(=O)CCC(=O)O)c(C)c1
3. O=C(c1ccco1)C12CN3CN(CN(C3)C1)C2
4. CC(N)c1ccc2ccccc2c1 (stereo not shown)

Given back:
> 1000 µg/mL
> 1000 µg/mL
> 380 µg/mL
> 250 µg/mL

###

assay.target: nm-HO (Neisseria meningitidis)
Format: cell-based
assay.setup: Table 3A; pellet colour
result.type: Biliverdin detection from E. coli Assay

// sample `O=C(c1ccco1)C12CN3CN(CN(C3)C1)C2` , its Biliverdin detection from E. coli Assay was Green Pellet

// sample `O=C(O)/C=C\C(=O)Nc1ccc(Nc2ccccc2)cc1` , its Biliverdin detection from E. coli Assay was White pellet

// sample `O=C(NNC(=O)c1ccncc1)c1ccncc1` , its Biliverdin detection from E. coli Assay was Green Pellet

// sample `Cl.N=C(N/N=C\c1cccnc1)N/N=C\c1cccnc1` , its Biliverdin detection from E. coli Assay was White pellet

// sample `NC(=O)c1ccc(NC(=O)/C=C\C(=O)O)cc1Cl` , its Biliverdin detection from E. coli Assay was Green Pellet

// sample `O=C1C=C(Nc2ccccc2O)c2ccccc2C1=O` , its Biliverdin detection from E. coli Assay was Toxic

// sample `CN(C)c1ccc(/C=N/NC(=N)N)cc1` , its Biliverdin detection from E. coli Assay was White pellet

Now look at this one.
// sample `O=C(Cc1ccc(Cl)cc1)N/N=C/c1c[nH]c2ccccc12` , its Biliverdin detection from E. coli Assay was White pellet
